Measured values drawn from the supplement of paper PMC10065799 for this set.

target: Grb2 SH2 (UniProt P62993); assay: SH2 binding enrichment of the phosphorylated peptide, bacterial display (enrichment ratio); higher = better substrate or ligand; peptides without Tyr show the background;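 further: peptide library displayed on the E. coli surface as eCPX fusions, selected cells deep-sequenced, score is each peptide's frequency after selection divided by its frequency in the input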
Sequence (P62993 whole entry, looked up, the tested form may be a part): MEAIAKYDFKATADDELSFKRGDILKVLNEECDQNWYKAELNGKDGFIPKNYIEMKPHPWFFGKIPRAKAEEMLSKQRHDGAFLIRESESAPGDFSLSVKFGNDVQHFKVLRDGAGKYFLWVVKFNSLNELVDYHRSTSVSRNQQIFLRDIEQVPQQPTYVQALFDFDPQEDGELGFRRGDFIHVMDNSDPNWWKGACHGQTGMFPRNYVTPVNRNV
Parameter Measured: SH2 binding enrichment

{"Primary Sequence": "IIQRAYRRHLL [SCN1A_Y1926]", "SH2 binding enrichment": 0.769}
{"Primary Sequence": "TNFSLYLRSLE [MTM1_Y71_R69S_YF]", "SH2 binding enrichment": 0.708}
{"Primary Sequence": "RQQEDYLLFKQ [RARRES1_Y159_YF]", "SH2 binding enrichment": 0.892}
{"Primary Sequence": "RRGMPYGGHGD [TGM1_Y312_R315H]", "SH2 binding enrichment": 0.97}
{"Primary Sequence": "DAGTDYVGISR [FREM2_Y2061]", "SH2 binding enrichment": 0.938}
{"Primary Sequence": "PESCFYKESWL [IQGAP2_Y630_L629F]", "SH2 binding enrichment": 1.05}
{"Primary Sequence": "CCNHPYRINGA [CHD7_Y1256_L1257R]", "SH2 binding enrichment": 0.861}
{"Primary Sequence": "HHIDYYKETTN [FGFR1_Y654_K656E]", "SH2 binding enrichment": 0.985}
{"Primary Sequence": "LKEIRYPPFTD [ALDH3B2_Y362_H361R_YF]", "SH2 binding enrichment": 0.798}
{"Primary Sequence": "KFDLMYAKLAF [TUBA1A_Y399_R402L]", "SH2 binding enrichment": 1.07}
{"Primary Sequence": "ELPEKYSQNIC [PKP2_Y626_Y631C]", "SH2 binding enrichment": 0.997}
{"Primary Sequence": "WVFNHYRWIIW [BRCA2_Y2624_YF]", "SH2 binding enrichment": 1.09}
{"Primary Sequence": "KEAQVYQAFRL [SUCLG2_Y343_K347R]", "SH2 binding enrichment": 0.768}
